B1: glmS ribozyme (parent)
chain: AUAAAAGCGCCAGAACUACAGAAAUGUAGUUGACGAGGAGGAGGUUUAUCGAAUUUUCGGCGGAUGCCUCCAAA

Variants of: B1
Protocol: self-cleavage kobs at 640 uM GlcN6P; higher = faster cleavage; RNA array
Details: with glucosamine-6-phosphate
This sample holds only a part of the variants without activity.

| Alteration | self-cleavage kobs at 640 uM GlcN6P |
| --- | --- |
| G29A U55C | 0.00146 s⁻¹ |
| U31A A39U | 0.00196 s⁻¹ |
| G13C A39C A42U | < 1e-05 s⁻¹ |
| G32A G59C | < 1e-05 s⁻¹ |
| G63A A64C | < 1e-05 s⁻¹ |
| A6G U30A G41A C68U | < 1e-05 s⁻¹ |
| A12U U56G U57G C58A A64G | 0.000137 s⁻¹ |
| A6U A36C A39U C71G | < 1e-05 s⁻¹ |
| C8U G13C | < 1e-05 s⁻¹ |
| A15C A39U | 0.000744 s⁻¹ |
| C8A A53G G63U | < 1e-05 s⁻¹ |
| A42U U65C | < 1e-05 s⁻¹ |
| A36C A42U G44C A52U | < 1e-05 s⁻¹ |
| G7U G43U C67G | < 1e-05 s⁻¹ |
| G29C U49C C50G G51U U65C | < 1e-05 s⁻¹ |
| U31G G51U | < 1e-05 s⁻¹ |
| C8G G32U | < 1e-05 s⁻¹ |
| G9U G38A | < 1e-05 s⁻¹ |
| C8G G32U G38U G44A | < 1e-05 s⁻¹ |
| G9U A12C | < 1e-05 s⁻¹ |
| A39C G66U | 0.000198 s⁻¹ |
| U45G U69C | 0.0407 s⁻¹ |
| A42G A64G C70A | 4.59e-05 s⁻¹ |
| C50A G51U G59A U69A | 0.000511 s⁻¹ |
| A6G G38U | < 1e-05 s⁻¹ |
| G29A U45A | 0.00159 s⁻¹ |
| U31A G35C A36U | < 1e-05 s⁻¹ |
| G29U U54A C67G | 8.37e-05 s⁻¹ |
| G32A C67U C71G | 0.000178 s⁻¹ |
| C34G G40U U46A | < 1e-05 s⁻¹ |
| G40A U56G | 0.000577 s⁻¹ |
| G9A G38A A42G U69G C70U C71A | < 1e-05 s⁻¹ |
| C34G C50A | < 1e-05 s⁻¹ |
| A12C G35U U47C A48U | < 1e-05 s⁻¹ |
| U54A G66A C71U | 0.00501 s⁻¹ |
| C10G G38A C58G A64C | 0.000102 s⁻¹ |
| C8U G9A G29U C58U | < 1e-05 s⁻¹ |
| A36G G60C | < 1e-05 s⁻¹ |
| C8U C61U | < 1e-05 s⁻¹ |
| G41C C67G | < 1e-05 s⁻¹ |
| A33G U56A | < 1e-05 s⁻¹ |
| U30G C70G | 9.18e-05 s⁻¹ |
| G43A A52U | < 1e-05 s⁻¹ |
| U30A G40U U45A | 4.42e-05 s⁻¹ |
| G35A C50G G59C U65G | < 1e-05 s⁻¹ |
| A12U G59A | 3.84e-05 s⁻¹ |
| C16U C34A G37A C68G | 0.000275 s⁻¹ |
| U56A C70A | 7.05e-05 s⁻¹ |
| U30C G62A C68G | < 1e-05 s⁻¹ |
| A39G G43U C58A | < 1e-05 s⁻¹ |
| C11U A42G U54A | 0.000886 s⁻¹ |
| G32A C34U G60A | < 1e-05 s⁻¹ |
| A12G G35U G51U C68G U69A | < 1e-05 s⁻¹ |
| U57G C61G C70U | 3.58e-05 s⁻¹ |
| C10A C16A A36C A42G U46A U54C U56G G63U | < 1e-05 s⁻¹ |
| U49C G51C G60C C68U | < 1e-05 s⁻¹ |
| C10G G51A | < 1e-05 s⁻¹ |
| C11A A33G A48C C67U | < 1e-05 s⁻¹ |
| A6U C16U G41U | < 1e-05 s⁻¹ |
| A33C G44U C71A | < 1e-05 s⁻¹ |
| G13C A14G | 0.000189 s⁻¹ |
| U46C C67A | 0.000284 s⁻¹ |
| U65G A72C | 0.000308 s⁻¹ |
| C16U U30A G44C G63C | < 1e-05 s⁻¹ |
| A12C U45A | 0.0118 s⁻¹ |
| U30G G35A A39U U55C | < 1e-05 s⁻¹ |
| C34A U55A | < 1e-05 s⁻¹ |
| A6C C11U | < 1e-05 s⁻¹ |
| U2C G32C G60U G63C | < 1e-05 s⁻¹ |
| U46G G51U | < 1e-05 s⁻¹ |
| A14U C68G | 6.11e-05 s⁻¹ |
| U30C U69A | 0.000111 s⁻¹ |
| U31A G37U U47A U54C U69G | 5.3e-05 s⁻¹ |
| A6U G43U U57A | < 1e-05 s⁻¹ |
| G13U U47G | 4.72e-05 s⁻¹ |
| C34G G38A C58A C68G | 5.22e-05 s⁻¹ |
| C61A G62U | < 1e-05 s⁻¹ |
| C11U A15U U57G C58U C67U | 0.00016 s⁻¹ |
| A36C A64U | < 1e-05 s⁻¹ |
| G32A A48C U55G G66A | < 1e-05 s⁻¹ |
| C10A A15G C34A G44A C67A C68A | < 1e-05 s⁻¹ |
| A12G G35C | < 1e-05 s⁻¹ |
| C16G U65G | 0.000149 s⁻¹ |
| A14U U54C | 0.00201 s⁻¹ |
| A36G G41C | < 1e-05 s⁻¹ |
| A39C A52C C71A | < 1e-05 s⁻¹ |
| A48C U49G | < 1e-05 s⁻¹ |
| C10U A39U G62A | < 1e-05 s⁻¹ |
| G29A G66U | 6.51e-05 s⁻¹ |
| G59U C61A | < 1e-05 s⁻¹ |
| G9U C34A G59U G63A | < 1e-05 s⁻¹ |
